# Experimental System: GST-hPTIP (590–1069) W676A (human, UniProt Q6ZW49 590-1069, W676A)
# Sequence (Q6ZW49 590-1069 W676A): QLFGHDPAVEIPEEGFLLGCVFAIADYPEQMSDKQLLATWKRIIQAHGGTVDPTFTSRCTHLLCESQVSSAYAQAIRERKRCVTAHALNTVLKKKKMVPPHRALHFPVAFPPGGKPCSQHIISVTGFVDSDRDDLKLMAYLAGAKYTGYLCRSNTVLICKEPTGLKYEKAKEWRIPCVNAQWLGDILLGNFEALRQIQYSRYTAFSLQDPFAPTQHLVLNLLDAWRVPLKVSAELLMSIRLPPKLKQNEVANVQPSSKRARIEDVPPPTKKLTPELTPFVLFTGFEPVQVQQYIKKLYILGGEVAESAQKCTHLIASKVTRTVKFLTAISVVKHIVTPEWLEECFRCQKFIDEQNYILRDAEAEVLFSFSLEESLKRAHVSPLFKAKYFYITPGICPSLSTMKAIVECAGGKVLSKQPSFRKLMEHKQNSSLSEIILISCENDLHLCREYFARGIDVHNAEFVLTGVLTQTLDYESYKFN
# Assay Summary: SPR
pKd: −log10 of the molar value. Square brackets hold non-standard residues; d marks the D form. Ends that are not written are not given here. * marks the point of attachment. Biotin = O=C1N[C@H]2[C@H](CS[C@H]2CCCCC(=O)*)N1; pS = N[C@@H](COP(=O)(O)O)C(=O)O
Measurement Type: pKd

Ask | // query pKd value for entry Biotin-DTPCLIIED[pS]QPESQVLEDD [53BP1 peptide Ser25(P), biotin-DTPCLIIEDpSQPESQVLEDD]
Reply | < 3.00

Data provenance is paper PMC2018624.
